biological target: T1, TfR1 (human, Sino Biological Inc.) (human, UniProt P02786 89-760); assay: ELISA, protein coated at 20 ug/mL, 2 ug/mL TfR1, anti-TfR1 detection
T1 construct: Bought protein; the catalogue number printed for it (11020-MM02) is the same as that printed for the anti-TfR1 primary antibody, so the construct cannot be told; also called TfFR1; receptor TfR1
T1 sequence (P02786 89-760 limits assumed): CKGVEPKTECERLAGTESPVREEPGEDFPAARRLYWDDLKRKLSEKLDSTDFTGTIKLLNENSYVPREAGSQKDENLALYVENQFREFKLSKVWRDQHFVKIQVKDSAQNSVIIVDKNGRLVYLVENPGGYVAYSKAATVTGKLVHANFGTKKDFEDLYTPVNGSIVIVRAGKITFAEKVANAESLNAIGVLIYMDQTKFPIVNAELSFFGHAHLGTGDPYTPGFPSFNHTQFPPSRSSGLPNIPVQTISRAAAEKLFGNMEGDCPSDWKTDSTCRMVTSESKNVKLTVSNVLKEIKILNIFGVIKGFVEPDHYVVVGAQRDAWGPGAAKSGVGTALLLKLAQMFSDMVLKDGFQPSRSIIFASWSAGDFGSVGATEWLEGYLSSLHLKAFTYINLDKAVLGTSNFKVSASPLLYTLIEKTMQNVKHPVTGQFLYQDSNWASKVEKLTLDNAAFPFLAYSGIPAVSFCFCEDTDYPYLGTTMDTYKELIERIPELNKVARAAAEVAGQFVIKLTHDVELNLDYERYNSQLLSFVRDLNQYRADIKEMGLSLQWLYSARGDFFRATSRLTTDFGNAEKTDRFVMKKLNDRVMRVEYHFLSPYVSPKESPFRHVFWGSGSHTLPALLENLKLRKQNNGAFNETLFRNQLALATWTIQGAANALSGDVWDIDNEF
endpoint name: ELISA value (OD630)

>  <binder>
NC fusion (designed binder) MSSQIRQNYHQDSEAAVNRQINLYLQASYTYLSLGFYFDRDDVALEGVSHFFRELAEEKREGYERLLKMQNQRGGRIFLQDIKKPAEDEWESGLNAMECALHLEKKLNQALLDLHKLATDKNDPHLCDFLETHFLDEEVKLIKKMGDHLTNLRKMGAPEAGLGEYLFERLTLKHD

>  <reported result>
1.03

$$$$
